Value source: patent EP2344531B1

- systemTested: TNFα (tumor necrosis factor α) (UniProt P01375 77-233)
- Sequence (P01375 77-233 limits assumed): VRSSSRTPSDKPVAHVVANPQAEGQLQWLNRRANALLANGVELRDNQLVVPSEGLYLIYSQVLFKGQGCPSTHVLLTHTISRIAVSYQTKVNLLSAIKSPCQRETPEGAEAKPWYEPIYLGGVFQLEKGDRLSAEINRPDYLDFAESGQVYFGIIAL
- testMethodNotes: BioVeris ECL competition assay with a labeled competitor; legend: ++ = IC50 about 10 - 50 µM
pIC50: −log10 of the molar value.
readout: pIC50

stdin: Return pIC50 (reported value) for this binder: BBIt-TNF-T1 (BBIt-TNFα-T1-A13I-S25R-M27A-L29P-S31A-F50K-V52T, peptide RYWQDIP) (designed binder) DPDDESSKPCCDQCICTKSNPPQCRCRDARPNACHSACKSCACRYWQDIPCKCTDITDFCYEPCKPSE
stdout: 4.30 to 5.00
